Target: Steroidogenic factor 1 (Homo sapiens) (UniProt Q13285)
Sequence (Q13285 whole entry, looked up): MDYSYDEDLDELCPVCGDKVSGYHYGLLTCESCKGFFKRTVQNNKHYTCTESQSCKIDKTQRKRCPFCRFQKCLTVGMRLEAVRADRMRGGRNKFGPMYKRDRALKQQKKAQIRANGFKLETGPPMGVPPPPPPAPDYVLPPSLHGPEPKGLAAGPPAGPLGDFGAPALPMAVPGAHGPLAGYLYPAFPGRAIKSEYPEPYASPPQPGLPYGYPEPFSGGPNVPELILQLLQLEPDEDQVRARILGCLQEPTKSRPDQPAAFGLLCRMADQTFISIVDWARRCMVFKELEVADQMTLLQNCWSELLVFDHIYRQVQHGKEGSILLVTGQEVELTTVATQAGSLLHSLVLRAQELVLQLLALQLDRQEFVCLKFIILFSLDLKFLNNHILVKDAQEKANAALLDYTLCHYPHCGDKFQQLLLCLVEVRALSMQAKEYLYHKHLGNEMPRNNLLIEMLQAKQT
Assay: SF1 (NR5A1) inverse agonists, counter-screen for LRH-1 inverse agonist project, cell-based, luminescence, high throughput (AID 651614);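 also: cells cotransfected with StAR promoter reporter and SF1 expression vector; 0% = vehicle on cells with receptor and 100% = vehicle on cells lacking receptor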
Conditions: cell-based SF1 luciferase reporter, at 3.6 µM
Activity calls are given as the source filed them. Rule as the data show it: active = inhibition above about 44%; inactive = the rest.
Classes used: active, inactive

>>> df
                                   compound  label_value
0    NC1=C(Cl)C(=O)c2ccc(S(N)(=O)=O)cc2C1=O       active
1  COc1ccc(-c2c(-c3ccccc3)c(C(=O)C(=O)NCCCN(C)C)n3ccc4cc(OC)c(OC)cc4c23)cc1OC     inactive
2  Cc1c(/C(O)=C2/C(=O)C(=O)N(CCN3CCOCC3)C2c2ccccn2)cnn1-c1ccccc1 (stereo not given)       active
3  CN(C)c1ccc(NC(=O)CN2CCC(NC(=O)C3CCCCC3)CC2)cc1       active
4             O=c1cnnc(N/N=C/c2ccccn2)[nH]1       active
5  CCCC(=O)NC(c1ccc(Cl)cc1)c1ccc2cccnc2c1O (stereo not given)       active
6  Cc1cccc(C(=O)N[C@H](C(=O)Nc2ncc(C)s2)C(C)C)c1     inactive
7  Cc1ccc(N2CC(C(=O)Nc3nc4ccc(S(C)(=O)=O)cc4s3)CC2=O)cc1C (stereo not given)     inactive
8  CC(=O)N1CCc2c(sc(NC(=O)Cc3ccc(F)cc3)c2C#N)C1       active
9                     Nc1cccc2nc3ccccc3cc12       active

---

Molecular target: Steroidogenic factor 1 (Homo sapiens) (UniProt Q13285)
Assay: SF1 (NR5A1) inverse agonists, counter-screen for LRH-1 inverse agonist project, cell-based, luminescence, high throughput (AID 651614);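 also: cells cotransfected with StAR promoter reporter and SF1 expression vector; 0% = vehicle on cells with receptor and 100% = vehicle on cells lacking receptor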
Conditions: cell-based SF1 luciferase reporter, at 3.6 µM, hits give high values
The source made the active and inactive calls. Cut-off read from the data, not from the text of the source: active = inhibition above about 44%; inactive = the rest.
A collection of compounds and their measured inhibition
metric: inhibition

>>> df
                                    compound                       experimental_target            result
 0  COc1ccc(-n2cc(-c3ccc(C)cc3)[n+]3c2SCC3)cc1  Steroidogenic factor 1 (Homo sapiens) (UniProt Q13285)    75.1% (active)
 1  C[C@H]1CCC/C=C/[C@@H]2C[C@H](O)C[C@H]2[C@H](O)[C@H](S(=O)c2ccc(O)cc2)CC(=O)O1 (stereo partly specified)  Steroidogenic factor 1 (Homo sapiens) (UniProt Q13285)    76.6% (active)
 2                     C=CC(=O)Nc1ccc(Br)cc1  Steroidogenic factor 1 (Homo sapiens) (UniProt Q13285)    51.4% (active)
 3                   C/C(=N\NC(N)=S)c1ccncc1  Steroidogenic factor 1 (Homo sapiens) (UniProt Q13285)      49% (active)
 4  O=C(COC(=O)Cc1ccccc1[N+](=O)[O-])NCc1ccc(Cl)cc1  Steroidogenic factor 1 (Homo sapiens) (UniProt Q13285)  34.4% (inactive)
 5  COc1cc(-c2cc(NC=O)c3ncc(-c4ccc(C(C)=O)cc4)n3c2)ccc1O  Steroidogenic factor 1 (Homo sapiens) (UniProt Q13285)    60.6% (active)
 6  Cc1ccc(C)c(NC(=O)CSc2nnc(CCNC(=O)OC(C)(C)C)o2)c1  Steroidogenic factor 1 (Homo sapiens) (UniProt Q13285)    59.8% (active)
 7  CC(=O)NC(c1ccc2ccccc2c1)c1ccc2cccnc2c1O (stereo unspecified)  Steroidogenic factor 1 (Homo sapiens) (UniProt Q13285)    87.6% (active)
 8      CCn1c(SCC(=O)Nc2ccc(Cl)cc2)nnc1C1CC1  Steroidogenic factor 1 (Homo sapiens) (UniProt Q13285)      50% (active)
 9  O=C(Cn1cc(COc2ccc(C(=O)c3ccccc3)cc2)nn1)c1ccc(O)cc1  Steroidogenic factor 1 (Homo sapiens) (UniProt Q13285)      57% (active)
10             Cn1c(=O)oc2cc(NC(=O)CCl)ccc21  Steroidogenic factor 1 (Homo sapiens) (UniProt Q13285)    71.3% (active)
11     Clc1ccccc1-c1nnc2sc(-c3ccc(Br)o3)nn12  Steroidogenic factor 1 (Homo sapiens) (UniProt Q13285)    54.5% (active)
12  CN(C)c1ccc(C=c2c3ccccc3n3c2cc(-c2ccccc2)[n+]3C)cc1  Steroidogenic factor 1 (Homo sapiens) (UniProt Q13285)    94.8% (active)
13        Cc1cc(C)nc(-n2nc(C)cc2Nc2ccccc2)n1  Steroidogenic factor 1 (Homo sapiens) (UniProt Q13285)  19.6% (inactive)
14  O=C(CSc1n[nH]c(-c2ccccn2)n1)Nc1ccc(Cl)cc1  Steroidogenic factor 1 (Homo sapiens) (UniProt Q13285)    67.1% (active)
15  CC1(C(=O)NCc2ccco2)Cc2c(-c3cccc(C(N)=O)c3)ccnc2O1 (stereo unspecified)  Steroidogenic factor 1 (Homo sapiens) (UniProt Q13285)    59.3% (active)
16                  Fc1ccc(Br)cc1SCCc1ccncc1  Steroidogenic factor 1 (Homo sapiens) (UniProt Q13285)  34.9% (inactive)
17  Cc1cc(C(C)(C)C)cc(C)c1C[n+]1ccc2ccccc2c1  Steroidogenic factor 1 (Homo sapiens) (UniProt Q13285)    69.1% (active)
18  O=C1/C(=C\c2ccc(Cl)c(Cl)c2)CN(C(=O)CCN2CCOCC2)C/C1=C/c1ccc(Cl)c(Cl)c1  Steroidogenic factor 1 (Homo sapiens) (UniProt Q13285)    92.9% (active)
19               Nc1nc(N)nc(-c2cc(O)ccc2O)n1  Steroidogenic factor 1 (Homo sapiens) (UniProt Q13285)    65.9% (active)
20        O=C(NN=Cc1c(O)ccc2ccccc12)c1ccncc1  Steroidogenic factor 1 (Homo sapiens) (UniProt Q13285)    89.8% (active)
21  O=[N+]([O-])c1ccc(-c2nc(-c3cccs3)c(-c3cccs3)[nH]2)cc1  Steroidogenic factor 1 (Homo sapiens) (UniProt Q13285)    50.8% (active)
22  CCN(CC)c1ccc2nc3ccc(N)cc3[n+](-c3ccccc3)c2c1  Steroidogenic factor 1 (Homo sapiens) (UniProt Q13285)    89.2% (active)
23  COc1ccc(-n2c(-c3ccc(Br)cc3)c[n+]3c2CCc2ccccc2-3)cc1  Steroidogenic factor 1 (Homo sapiens) (UniProt Q13285)      65% (active)
24  COc1ccc(C(=O)Nc2ccccc2C(=O)N/N=C/c2ccc(O)c(OC)c2)cc1  Steroidogenic factor 1 (Homo sapiens) (UniProt Q13285)  11.7% (inactive)
25             COc1ccccc1C(=O)Nc1nc2ccccc2s1  Steroidogenic factor 1 (Homo sapiens) (UniProt Q13285)      88% (active)
26        COc1ccc2c(c1)-c1c(ssc1=S)C(C)(C)N2  Steroidogenic factor 1 (Homo sapiens) (UniProt Q13285)  41.5% (inactive)
27  CC(C)n1c(SCC(=O)Nc2ccc(N3CCOCC3)cc2)nnc1-c1ccco1  Steroidogenic factor 1 (Homo sapiens) (UniProt Q13285)    45.7% (active)
28           O=C(Cc1ccc(Cl)cc1Cl)Nc1ccncc1Cl  Steroidogenic factor 1 (Homo sapiens) (UniProt Q13285)      70% (active)
29    COc1ccc(OC)c(NS(=O)(=O)c2ccc(SC)cc2)c1  Steroidogenic factor 1 (Homo sapiens) (UniProt Q13285)    54.2% (active)
30  COc1ccc(OC)c2nc3c(C(=O)NCCN(C)C)cccc3nc12  Steroidogenic factor 1 (Homo sapiens) (UniProt Q13285)    70.5% (active)
31  CC(=O)Nc1cc(-c2ccc(S(C)(=O)=O)cc2)cn2c(-c3ccc(F)cc3)cnc12  Steroidogenic factor 1 (Homo sapiens) (UniProt Q13285)  33.3% (inactive)
32  CC(C)C(=O)NC(c1ccc(Cl)cc1Cl)c1ccc2cccnc2c1O (stereo unspecified)  Steroidogenic factor 1 (Homo sapiens) (UniProt Q13285)  41.4% (inactive)
33   CN(C)CCNc1ccc2nnn3c4ccc(O)cc4c(=O)c1c23  Steroidogenic factor 1 (Homo sapiens) (UniProt Q13285)    71.5% (active)
34                  Cc1c(C)c2cccnc2c2ncccc12  Steroidogenic factor 1 (Homo sapiens) (UniProt Q13285)    91.9% (active)
35  CC(=O)c1ccc(-c2c(C)cc3oc(=O)cc(-c4ccccc4)c3c2C)cc1  Steroidogenic factor 1 (Homo sapiens) (UniProt Q13285)    52.6% (active)
36         CCCCCCCCn1c2c(c(=N)c3ccccc31)CCC2  Steroidogenic factor 1 (Homo sapiens) (UniProt Q13285)    92.8% (active)
37       COc1c(/C=N/NC(N)=S)c(C)nn1-c1ccccc1  Steroidogenic factor 1 (Homo sapiens) (UniProt Q13285)  27.9% (inactive)
38     N=c1ccn(CC(=O)c2ccc(-c3ccccc3)cc2)cc1  Steroidogenic factor 1 (Homo sapiens) (UniProt Q13285)    76.3% (active)
39        CCCCCCCCCCn1c2c(c(=N)c3c1CCC3)CCC2  Steroidogenic factor 1 (Homo sapiens) (UniProt Q13285)    94.5% (active)
40  CC(=O)NC(c1ccc(Cl)cc1Cl)c1ccc2cccnc2c1O (stereo unspecified)  Steroidogenic factor 1 (Homo sapiens) (UniProt Q13285)    86.8% (active)
41  Cc1ccc(NC(=O)CN2CCC(NC(=O)C3CCCCC3)CC2)c(Br)c1  Steroidogenic factor 1 (Homo sapiens) (UniProt Q13285)    44.9% (active)
42       Cc1ccccc1Nc1nc(-c2cccnc2)nc2ccccc12  Steroidogenic factor 1 (Homo sapiens) (UniProt Q13285)  33.2% (inactive)
43  CCOC(=O)C(C)Oc1cccc2c(=O)n(CC(=O)Nc3ccc4c(c3)OCCO4)ccc12 (stereo unspecified)  Steroidogenic factor 1 (Homo sapiens) (UniProt Q13285)    51.7% (active)
44  COCCn1c(SCC(=O)Nc2ccc(C(C)=O)cc2)nnc1-c1ccco1  Steroidogenic factor 1 (Homo sapiens) (UniProt Q13285)  37.4% (inactive)
45         O=C(O)CSCC(=O)Nc1ccc(C2CCCCC2)cc1  Steroidogenic factor 1 (Homo sapiens) (UniProt Q13285)    64.5% (active)
